Overview of reported hemolysis at 1 h, 150 µM across a group of compounds:
Assay Method Text: in vitro
Type: cell-based, bovine
Condition Set: bovine
Peptide text beside a SMILES is read from it.
API: value field is a number in %; no unit string.

Examples with their reported hemolysis at 1 h, 150 µM follow.
Compound | hemolysis at 1 h, 150 µM, %
CC(C)C[C@@H](NC(=O)[C@H](CCCCN)NC(=O)[C@H](CCCCN)NC(=O)[C@@H](N)CCCCN)C(=O)N[C@H](Cc1ccc2ccccc2c1)C(=O)N[C@H](Cc1ccc(O)cc1)C(=O)N[C@H](Cc1ccc2ccccc2c1)C(N)=O [Compound 24] (HELM PEPTIDE1{K.K.K.[dL].[O=C([C@@H](Cc1ccc2ccccc2c1)N[*:1])[*:2]].[dY].[O=C([C@@H](Cc1ccc2ccccc2c1)N[*:1])[*:2]].[am]}$$$$V2.0) | 29.8
CCCC[C@H](NC(=O)[C@H](CCCCN)NC(=O)[C@H](CCCCN)NC(=O)[C@@H](N)CCCCN)C(=O)N[C@@H](Cc1cccc2ccccc12)C(=O)N[C@@H](Cc1ccccc1)C(=O)N[C@@H](Cc1cccc2ccccc12)C(N)=O [Compound 20] (HELM PEPTIDE1{K.K.K.[Nle].[O=C([C@H](Cc1cccc2ccccc12)N[*:1])[*:2]].F.[O=C([C@H](Cc1cccc2ccccc12)N[*:1])[*:2]].[am]}$$$$V2.0) | 20.1

Please look at the following compound next.
(Q) Given CC(C)C[C@@H](NC(=O)[C@H](CCCCN)NC(=O)[C@H](CCCCN)NC(=O)[C@@H](N)CCCCN)C(=O)N[C@H](Cc1cccc2ccccc12)C(=O)N[C@H](Cc1ccc(O)cc1)C(=O)N[C@H](Cc1cccc2ccccc12)C(N)=O [Compound 21] (HELM PEPTIDE1{K.K.K.[dL].[O=C([C@@H](Cc1cccc2ccccc12)N[*:1])[*:2]].[dY].[O=C([C@@H](Cc1cccc2ccccc12)N[*:1])[*:2]].[am]}$$$$V2.0) , respond with its hemolysis at 1 h, 150 µM.
(A) 16
